molecular target: ULK1 kinase (Homo sapiens, UniProt O75385, E37A/K38A); construct: (residues 1-283; ID NO: 1); assay: Biochemical assay for ULK1 (coupled pyruvate kinase/lactate dehydrogenase assay); conditions: 1 mM ATP, 0.1 nM ULK1; read-out: ULK1 (inhibition of biochemical activity), IC50
Sequence (O75385 1-283 E37A/K38A): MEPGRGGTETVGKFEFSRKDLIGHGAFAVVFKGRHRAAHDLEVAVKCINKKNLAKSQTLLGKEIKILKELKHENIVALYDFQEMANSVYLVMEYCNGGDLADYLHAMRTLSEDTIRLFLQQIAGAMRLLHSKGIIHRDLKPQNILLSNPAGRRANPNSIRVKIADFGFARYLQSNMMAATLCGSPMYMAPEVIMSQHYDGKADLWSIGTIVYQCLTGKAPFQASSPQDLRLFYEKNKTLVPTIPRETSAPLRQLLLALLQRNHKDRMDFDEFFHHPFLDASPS
Below, each of the compounds is paired with its reported IC50 value.

CC/C(Nc1cnn(C2CCN(C(C)C)CC2)c1)=C1/C(=O)Nc2ccc(C(=O)N(C)C)cc21 : 100 to 500 nM

Q: Could you tell me which IC50 is on file for `CC/C(Nc1cnn(C(C)C)c1)=C1/C(=O)Nc2ccc(C(=O)N(CC(F)(F)F)C3CC3)cc21` ?
Result: ≤ 10 nM

Q: Could you tell me which IC50 is on file for CC/C(Nc1cnn(C2CC3CCC(C2)N3C)c1)=C1/C(=O)Nc2ccc(C(=O)NC[C@H]3CCCO3)cc21 (stereo partly shown) ?
Result: ≤ 10 nM

// provenance: patent US20240150368A1
